experiment: APR_HepG2_CellCycleArrest_72hr: Apredica 72-hour HepG2 Assay for Cell Cycle Arrest (AID 2282914); details: high-content imaging, actives raise or lower the signal
Active and inactive are the calls of the source. The calls were made as follows: active = hit-call score of the fitted dose curve at least 0.9, where 1 is the maximum; inactive = score below 0.9.
Outcomes: y (active), n (inactive)

INSERT INTO measurements (compound, group) VALUES
  ('COc1cc(C(C)C)c2c(c1)S(=O)(=O)N(COc1cc(=O)n3cccc(OCCN4CCCCC4)c3n1)C2=O', 'n'),
  ('CC(C)CCCCCCOC(=O)C1CCCCC1C(=O)OCCCCCCC(C)C (stereo unspecified)', 'n'),
  ('NC(=O)N(O)[C@@H]1COc2cc(OCc3ccccc3)ccc21', 'n'),
  ('CCCCN1C(=O)[C@@H]([C@H](O)C2CCCCC2)NC(=O)C12CCN(Cc1ccc(Oc3ccc(C(=O)O)cc3)cc1)CC2', 'n'),
  ('Cc1nc(-c2ccccn2)ncc1C(=O)Nn1cc(C)c2cc(F)ccc21', 'y'),
  ('C=CN1CCCC1=O', 'n');
